Assign activity coefficient to each entry below.
assay: activity coefficient (dimensionless); of the first substance listed, at infinite dilution; xn = mol fraction of the nth substance listed; conditions: 332.65 K; Liquid; Chromatography; x1 = 0

activity coefficient for CCCCCCCCCCC [undecane] + CCCCCCCC[N+](C)(C)C.O=S(=O)([N-]S(=O)(=O)C(F)(F)F)C(F)(F)F ? 23.7

activity coefficient for Cc1cccc(C)c1 [1,3-dimethylbenzene] + CCCCCCCC[N+](C)(C)C.O=S(=O)([N-]S(=O)(=O)C(F)(F)F)C(F)(F)F ? 1.39

activity coefficient for CCCCCCCCC [nonane] + CCCCCCCC[N+](C)(C)C.O=S(=O)([N-]S(=O)(=O)C(F)(F)F)C(F)(F)F ? 14.8

activity coefficient for CCCCCCCCCCC [undecane] + CCCCCCCCCC[N+](C)(C)C.O=S(=O)([N-]S(=O)(=O)C(F)(F)F)C(F)(F)F ? 12.2

activity coefficient for C[N+](=O)[O-] [nitromethane] + CCCCCCCC[N+](CCCCCCCC)(CCCCCCCC)CCCCCCCC.O=S(=O)([N-]S(=O)(=O)C(F)(F)F)C(F)(F)F ? 0.61

activity coefficient for CC1CCCC1 [methylcyclopentane] + CCCCCCCC[N+](C)(C)C.O=S(=O)([N-]S(=O)(=O)C(F)(F)F)C(F)(F)F ? 3.95

activity coefficient for CC(C)OC(C)C [diisopropyl ether] + CCCCCCCC[N+](CCCCCCCC)(CCCCCCCC)CCCCCCCC.O=S(=O)([N-]S(=O)(=O)C(F)(F)F)C(F)(F)F ? 1.08

activity coefficient for CCN(CC)CC [triethylamine] + CCCCCCCC[N+](CCCCCCCC)(CCCCCCCC)CCCCCCCC.O=S(=O)([N-]S(=O)(=O)C(F)(F)F)C(F)(F)F ? 1.05

activity coefficient for C[N+](=O)[O-] [nitromethane] + CCCCCCCC[N+](C)(C)C.O=S(=O)([N-]S(=O)(=O)C(F)(F)F)C(F)(F)F ? 0.58

activity coefficient for CCCCCCCCCC [decane] + CCCC[N+](C)(CCCC)CCCC.O=S(=O)([N-]S(=O)(=O)C(F)(F)F)C(F)(F)F ? 19.2

activity coefficient for CCCCCC [hexane] + CCCCCCCC[N+](C)(C)C.O=S(=O)([N-]S(=O)(=O)C(F)(F)F)C(F)(F)F ? 5.83

activity coefficient for CC(C)CC(C)(C)C [2,2,4-trimethylpentane] + CCCCCCCC[N+](C)(C)C.O=S(=O)([N-]S(=O)(=O)C(F)(F)F)C(F)(F)F ? 7.66

activity coefficient for CCC(C)CC [3-methylpentane] + CCCCCCCC[N+](CCCCCCCC)(CCCCCCCC)CCCCCCCC.O=S(=O)([N-]S(=O)(=O)C(F)(F)F)C(F)(F)F ? 1.22

----------
test: activity coefficient (dimensionless); of the first substance listed, at infinite dilution; xn = mol fraction of the nth substance listed; details: 332.65 K; Liquid; Chromatography; x1 = 0
Cut-off 0.7 on activity coefficient: below means True, at or above means False.

Dear colleague, could you confirm whether activity coefficient of CCC=O [propanal] + CCCCCCCC[N+](C)(C)C.O=S(=O)([N-]S(=O)(=O)C(F)(F)F)C(F)(F)F falls below 0.7? Thanks. True

Dear colleague, could you confirm whether activity coefficient of c1ccccc1 [benzene] + CCCC[N+](C)(CCCC)CCCC.O=S(=O)([N-]S(=O)(=O)C(F)(F)F)C(F)(F)F falls below 0.7? Thanks. False

Dear colleague, could you confirm whether activity coefficient of CCCCCC [hexane] + CCCCCCCCCC[N+](C)(C)C.O=S(=O)([N-]S(=O)(=O)C(F)(F)F)C(F)(F)F falls below 0.7? Thanks. False

Dear colleague, could you confirm whether activity coefficient of CCC[N+](=O)[O-] [1-nitropropane] + CCCCCCCC[N+](C)(C)C.O=S(=O)([N-]S(=O)(=O)C(F)(F)F)C(F)(F)F falls below 0.7? Thanks. True

Dear colleague, could you confirm whether activity coefficient of Cc1ccc(C)cc1 [1,4-dimethylbenzene] + CCCCCCCCCC[N+](C)(C)C.O=S(=O)([N-]S(=O)(=O)C(F)(F)F)C(F)(F)F falls below 0.7? Thanks. False

Dear colleague, could you confirm whether activity coefficient of CCCC(C)=O [pentan-2-one] + CCCCCCCCCC[N+](C)(C)C.O=S(=O)([N-]S(=O)(=O)C(F)(F)F)C(F)(F)F falls below 0.7? Thanks. True

Dear colleague, could you confirm whether activity coefficient of C#CCCCC [1-hexyne] + CCCC[N+](C)(CCCC)CCCC.O=S(=O)([N-]S(=O)(=O)C(F)(F)F)C(F)(F)F falls below 0.7? Thanks. False

Dear colleague, could you confirm whether activity coefficient of CCCCCCCC [octane] + CCCCCCCC[N+](C)(C)C.O=S(=O)([N-]S(=O)(=O)C(F)(F)F)C(F)(F)F falls below 0.7? Thanks. False

Dear colleague, could you confirm whether activity coefficient of CO [methanol] + CCCC[N+](C)(CCCC)CCCC.O=S(=O)([N-]S(=O)(=O)C(F)(F)F)C(F)(F)F falls below 0.7? Thanks. False

Dear colleague, could you confirm whether activity coefficient of CCC(C)=O [butanone] + CCCC[N+](C)(CCCC)CCCC.O=S(=O)([N-]S(=O)(=O)C(F)(F)F)C(F)(F)F falls below 0.7? Thanks. True

Dear colleague, could you confirm whether activity coefficient of ClCCl [dichloromethane] + CCCCCCCC[N+](CCCCCCCC)(CCCCCCCC)CCCCCCCC.O=S(=O)([N-]S(=O)(=O)C(F)(F)F)C(F)(F)F falls below 0.7? Thanks. True

Dear colleague, could you confirm whether activity coefficient of CC(C)CO [2-methyl-1-propanol] + CCCCCCCC[N+](CCCCCCCC)(CCCCCCCC)CCCCCCCC.O=S(=O)([N-]S(=O)(=O)C(F)(F)F)C(F)(F)F falls below 0.7? Thanks. False

Dear colleague, could you confirm whether activity coefficient of CCC(=O)CC [pentan-3-one] + CCCCCCCC[N+](C)(C)C.O=S(=O)([N-]S(=O)(=O)C(F)(F)F)C(F)(F)F falls below 0.7? Thanks. True

----------
assay: activity coefficient (dimensionless); of the first substance listed, at infinite dilution; xn = mol fraction of the nth substance listed; details: 332.65 K; Liquid; Chromatography; x1 = 0
Assign activity coefficient to each entry below.
API doc: respond with a numeric literal and nothing else, no unit.

activity coefficient for CCc1ccccc1 [ethylbenzene] + CCCC[N+](C)(CCCC)CCCC.O=S(=O)([N-]S(=O)(=O)C(F)(F)F)C(F)(F)F ? 1.64

activity coefficient for C1COCCO1 [1,4-dioxane] + CCCCCCCC[N+](CCCCCCCC)(CCCCCCCC)CCCCCCCC.O=S(=O)([N-]S(=O)(=O)C(F)(F)F)C(F)(F)F ? 0.47

activity coefficient for Cc1ccccc1C [1,2-dimethylbenzene] + CCCCCCCCCC[N+](C)(C)C.O=S(=O)([N-]S(=O)(=O)C(F)(F)F)C(F)(F)F ? 1.07

activity coefficient for Cc1ccc(C)cc1 [1,4-dimethylbenzene] + CCCC[N+](C)(CCCC)CCCC.O=S(=O)([N-]S(=O)(=O)C(F)(F)F)C(F)(F)F ? 1.62

activity coefficient for C=CCCCC [hex-1-ene] + CCCCCCCCCC[N+](C)(C)C.O=S(=O)([N-]S(=O)(=O)C(F)(F)F)C(F)(F)F ? 2.86

activity coefficient for CCC(=O)CC [pentan-3-one] + CCCC[N+](C)(CCCC)CCCC.O=S(=O)([N-]S(=O)(=O)C(F)(F)F)C(F)(F)F ? 0.54

----------
experiment: activity coefficient (dimensionless); of the first substance listed, at infinite dilution; xn = mol fraction of the nth substance listed; conditions: 322.85 K; Liquid; Chromatography; x1 = 0
Use MET when the recorded activity coefficient is no lower than 1; use NOT MET when it is lower.

Quick check, activity coefficient >= 1? CCCCCCCCCC [decane] + CCCCCCCCCC[N+](C)(C)C.O=S(=O)([N-]S(=O)(=O)C(F)(F)F)C(F)(F)F MET

Quick check, activity coefficient >= 1? OCC(F)(F)F [2,2,2-trifluoroethanol] + CCCC[N+](C)(CCCC)CCCC.O=S(=O)([N-]S(=O)(=O)C(F)(F)F)C(F)(F)F NOT MET

Quick check, activity coefficient >= 1? CCCO [propan-1-ol] + CCCCCCCCCC[N+](C)(C)C.O=S(=O)([N-]S(=O)(=O)C(F)(F)F)C(F)(F)F MET

Quick check, activity coefficient >= 1? CC1CCCC1 [methylcyclopentane] + CCCCCCCC[N+](C)(C)C.O=S(=O)([N-]S(=O)(=O)C(F)(F)F)C(F)(F)F MET

Quick check, activity coefficient >= 1? CC#N [acetonitrile] + CCCCCCCC[N+](C)(C)C.O=S(=O)([N-]S(=O)(=O)C(F)(F)F)C(F)(F)F NOT MET

Quick check, activity coefficient >= 1? CCCCCCC [heptane] + CCCC[N+](C)(CCCC)CCCC.O=S(=O)([N-]S(=O)(=O)C(F)(F)F)C(F)(F)F MET

Quick check, activity coefficient >= 1? CCOCC [diethyl ether] + CCCCCCCCCC[N+](C)(C)C.O=S(=O)([N-]S(=O)(=O)C(F)(F)F)C(F)(F)F MET
